Reference source for all entries: patent US20100136580A1

measured-on: T1, GST-Dvl2PDZ fusion protein (human, UniProt O14641 248-364)
T1 construct: range 248-364; Made with the pGEX E. coli expression system; also called GST-PDZ fusion protein; not shown: glutathione S-transferase (GST) encoded by plasmid pGEX
T1 sequence (looked up): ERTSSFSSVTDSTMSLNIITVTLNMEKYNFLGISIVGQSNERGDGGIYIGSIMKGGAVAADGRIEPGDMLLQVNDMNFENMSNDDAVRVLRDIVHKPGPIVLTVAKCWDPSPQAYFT
experimental-protocol: competition ELISA; GST-Dvl2PDZ (600 nM) binding to immobilized biotin-KWYGWL
pIC50: −log10 of the molar value. No end group written: not given here.
value-type: pIC50

Use the examples below as a reference point.
>  <binder>
Ac-KWYGWL-OH (synthetic peptide) [Peptide D1 (KWYGWL-COOH)]

>  <pIC50>
5.87

$$$$
>  <binder>
Ac-WKWYGWF (synthetic peptide; D2 with a Trp extension at position -6) [Peptide D4 (WKWYGWF)]

>  <pIC50>
6.51

$$$$
>  <binder>
Ac-KGFGML-OH (synthetic peptide)

>  <pIC50>
3.61

$$$$

P = Ac-KWYGWF (synthetic peptide; D1 with Leu to Phe at position 0) [Peptide D2 (KWYGWF)]
Q = Ac-WKWYGWL (synthetic peptide; D1 with a Trp extension at position -6) [Peptide D3 (WKWYGWL)]
Hello, I am sorting some records. Could you say if P or Q has the smaller pIC50 value? Reply briefly: the label of your chosen item.
P
